Hello, the source for this data is patent US6822146B2, in case you need it.

Let's look at some compounds and their measured weed control, visual rating: Polygonum aviculare.
test system: Polygonum aviculare; assay: Test H weed control, field plots; assay type: in vivo; parameters: concentration or dose not given beside the values; details: 36 days after treatment; g a.i./ha: tribenuron-methyl 22.5, metsulfuron-methyl 6, ethametsulfuron-methyl 16, imazapyr isopropylamine salt 15, aclonifen 1200
Structures can show the parent of a compound that is named as a salt.
I only need the number, in %, no unit after it.

Solved entries:
Compound: Nc1c([N+](=O)[O-])ccc(Oc2ccccc2)c1Cl [Aclonifen, aclonifen]
Target: Polygonum aviculare
Assay Result: 30
//
Compound: CCOc1nc(NC)nc(NC(=O)NS(=O)(=O)c2ccccc2C(=O)OC)n1 [Ethametsulfuron-methyl, ethametsulfuron-methyl]
Target: Polygonum aviculare
Assay Result: 0

Challenge: Return reported weed control, visual rating: Polygonum aviculare; argument: COC(=O)c1ccccc1S(=O)(=O)NC(=O)Nc1nc(C)nc(OC)n1 [Metsulfuron-methyl, metsulfuron-methyl]
Response given: 100

Challenge: Return reported weed control, visual rating: Polygonum aviculare; argument: COC(=O)c1ccccc1S(=O)(=O)NC(=O)N(C)c1nc(C)nc(OC)n1 [Tribenuron-methyl, tribenuron-methyl]
Response given: 90

Challenge: Return reported weed control, visual rating: Polygonum aviculare; argument: CC(C)C1(C)N=C(c2ncccc2C(=O)O)NC1=O (centres unmarked) [Imazapyr, isopropylamine salt, Imazapyr]
Response given: 0

====

tested on: M5M11; experiment: Test B greenhouse phytotoxicity, M5M11; type: in vivo, sunflower; conditions: in vivo
Structures can show the parent of a compound that is named as a salt.
Measured Metric: Maximum Phytotoxicity (%)
I only need the number, in %, no unit after it.

Molecule: COC(=O)c1ccc(C(F)(F)F)nc1S(=O)(=O)NC(=O)Nc1nc(OC)cc(OC)n1 [Flupyrsulfuron-methyl-sodium]
Measured Metric: Maximum Phytotoxicity
Assay Result: 50
--
Molecule: CCc1cnc(C2=NC(C)(C(C)C)C(=O)N2)c(C(=O)O)c1 (centres unmarked) [Imazethapyr (ammonium salt), Imazethapyr]
Measured Metric: Maximum Phytotoxicity
Assay Result: 30
--
Molecule: CCS(=O)(=O)c1cccnc1S(=O)(=O)NC(=O)Nc1nc(OC)cc(OC)n1
Measured Metric: Maximum Phytotoxicity
Assay Result: 65
--
Molecule: COc1cc(OC)nc(NC(=O)NS(=O)(=O)N(C)S(C)(=O)=O)n1
Measured Metric: Maximum Phytotoxicity
Assay Result: 60
--
Molecule: COC(=O)c1ccccc1S(=O)(=O)NC(=O)N(C)c1nc(C)nc(OC)n1
Measured Metric: Maximum Phytotoxicity
Assay Result: 0
--
Molecule: COc1nc(C)nc(NC(=O)NS(=O)(=O)c2ccccc2Cl)n1
Measured Metric: Maximum Phytotoxicity
Assay Result: 50

Challenge: Return reported Maximum Phytotoxicity; argument: CCS(=O)(=O)c1nc2ccccn2c1S(=O)(=O)NC(=O)Nc1nc(OC)cc(OC)n1
Response given: 60

Challenge: Return reported Maximum Phytotoxicity; argument: COc1cc(OC)nc(Sc2cccc(Cl)c2C(=O)O)n1 [Pyrithiobac-sodium]
Response given: 50

====

system: Mercurialis annua; assay: Test H weed control, field plots; assay type: in vivo; conditions: 36 days after treatment; g a.i./ha: tribenuron-methyl 22.5, metsulfuron-methyl 6, ethametsulfuron-methyl 16, imazapyr isopropylamine salt 15, aclonifen 1200
Where a name gives a salt, the structure may show the parent alone.
Measured Metric: weed control, visual rating: Mercurialis annua (%)
I only need the number, in %, no unit after it.

Solved entries:
Compound: COC(=O)c1ccccc1S(=O)(=O)NC(=O)N(C)c1nc(C)nc(OC)n1
Measurement Unit: %
Assay Result: 100
--
Compound: CCOc1nc(NC)nc(NC(=O)NS(=O)(=O)c2ccccc2C(=O)OC)n1
Measurement Unit: %
Assay Result: 0
--
Compound: Nc1c([N+](=O)[O-])ccc(Oc2ccccc2)c1Cl
Measurement Unit: %
Assay Result: 50
--
Compound: COC(=O)c1ccccc1S(=O)(=O)NC(=O)Nc1nc(C)nc(OC)n1
Measurement Unit: %
Assay Result: 100

Then this compound:
Challenge: Form field: weed control, visual rating: Mercurialis annua recorded for CC(C)C1(C)N=C(c2ncccc2C(=O)O)NC1=O (centres unmarked) [Imazapyr, isopropylamine salt, Imazapyr] with Mercurialis annua (enter value)
Response given: 47
